Measured values drawn from ChEMBL document CHEMBL3603733 for this set.

# measured.on: Cannabinoid receptor 2 (Homo sapiens, UniProt P34972)
# Sequence (P34972 whole entry): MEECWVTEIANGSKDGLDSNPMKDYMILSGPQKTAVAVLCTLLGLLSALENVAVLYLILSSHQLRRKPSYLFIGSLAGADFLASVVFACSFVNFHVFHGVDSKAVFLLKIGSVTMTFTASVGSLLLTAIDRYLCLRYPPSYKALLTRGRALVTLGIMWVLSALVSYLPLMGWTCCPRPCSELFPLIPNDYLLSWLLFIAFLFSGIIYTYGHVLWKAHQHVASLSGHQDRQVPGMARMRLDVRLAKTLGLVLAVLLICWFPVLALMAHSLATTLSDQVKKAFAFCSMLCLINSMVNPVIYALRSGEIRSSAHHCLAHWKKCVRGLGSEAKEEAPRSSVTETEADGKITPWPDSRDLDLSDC
# experiment.description: Inverse agonist activity at CB2 receptor (unknown origin) expressed in HEK cells assessed as increase in cAMP production at 5 x 10^-6 to 5 x 10^-10 M measured at 50 mins by ACTOne dye-based fluorescence assay in presence of forskolin and Ro 20-1724 relative to control
# Format: functional, cell-based
# settings: HEK293
Assign Efficacy to each entry below.

{"columns": ["smiles.text", "assay.value"],
 "data": [
  ["CC(C)c1ccc(C(=O)c2cc(O)c(-c3cc(Cl)cc(Cl)c3)c(O)c2)cc1", "56%"],
  ["O=C(c1ccc(O)cc1)c1cc(O)c(-c2cc(Cl)cc(Cl)c2)c(O)c1", "75.6%"]
]}

Then this compound:
The compound O=C(c1ccc(Cl)cc1)c1cc(O)c(-c2cc(Cl)cc(Cl)c2)c(O)c1 showed Efficacy equal to 119%

----------
# measured.on: Cannabinoid receptor 2 (Homo sapiens)
# experiment.description: Inverse agonist activity at CB2 receptor (unknown origin) expressed in HEK cells assessed as increase in cAMP production measured at 50 mins by ACTOne dye-based fluorescence assay in presence of forskolin and Ro 20-1724
# Assay type: functional, cell-based, HEK293
# settings: read-out: EC50
Please assign NOT MET whenever EC50 is at or above 0.1 µM, and MET whenever it is below.

{"columns": ["smiles.text", "measured.on", "label"],
 "data": [
  ["Cc1ccc(C(=O)c2cc(O)c(-c3cc(Cl)cc(Cl)c3)c(O)c2)cc1", "Cannabinoid receptor 2 (Homo sapiens)", "NOT MET"]
]}

Query string: Is 0.1 µM strictly greater than the molecule's reported EC50? molecule: O=C(c1ccc(Cl)cc1)c1cc(O)c(-c2cc(Cl)cc(Cl)c2)c(O)c1
Result string: MET

Query string: Is 0.1 µM strictly greater than the molecule's reported EC50? molecule: CCc1ccc(C(=O)c2cc(O)c(-c3cc(Cl)cc(Cl)c3)c(O)c2)cc1
Result string: MET

----------
So I've got pKi readings for Cannabinoid receptor 2 (Homo sapiens), take a look.
Give bare numbers, as −log10 of the molar value.

Example entries begin here.
{"columns": ["smiles.text", "pKi"],
 "data": [
  ["Cc1ccc(C(=O)c2cc(O)c(-c3cc(Cl)cc(Cl)c3)c(O)c2)cc1", 6.59],
  ["CC(C)c1ccc(C(=O)c2cc(O)c(-c3cc(Cl)cc(Cl)c3)c(O)c2)cc1", 6.79]
]}

Batch request: pKi per item, same order as input.
1. O=C(c1cc(O)c(-c2cc(Cl)cc(Cl)c2)c(O)c1)C1CCCCC1
2. Cc1cccc(C(=O)c2cc(O)c(-c3cc(Cl)cc(Cl)c3)c(O)c2)c1
3. CCCc1ccc(C(=O)c2cc(O)c(-c3cc(Cl)cc(Cl)c3)c(O)c2)cc1

Result string:
1. 5.80
2. 5.58
3. 7.22

Batch request: pKi per item, same order as input.
1. O=C(c1ccc(Cl)cc1)c1cc(O)c(-c2cc(Cl)cc(Cl)c2)c(O)c1
2. CC(C)(C)c1ccc(C(=O)c2cc(O)c(-c3cc(Cl)cc(Cl)c3)c(O)c2)cc1
3. CCc1cccc(C(=O)c2cc(O)c(-c3cc(Cl)cc(Cl)c3)c(O)c2)c1
4. CCc1ccc(C(=O)c2cc(O)c(-c3cc(Cl)cc(Cl)c3)c(O)c2)cc1
5. CCCCc1ccc(C(=O)c2cc(O)c(-c3cc(Cl)cc(Cl)c3)c(O)c2)cc1

Result string:
6.92
5.50
5.77
7.43
6.33
